assay: Oral pharmacokinetics of Compound 1 in fed or fasted male dogs at 10 mg/kg; format: in vivo, male beagle dogs; conditions: male, beagle, dog, plasma, po, 10 mg/kg, male dogs; Fasted
attribute.measured: Cmax (ng/mL)
Please reply with the bare figure in ng/mL and do not write the unit itself.

Record `Cc1ccc(NC(=O)C2(c3ccc4c(c3)OC(F)(F)O4)CC2)nc1-c1cccc(C(=O)O)c1` . Reported Cmax: 7900

* * *

assay: Toxicokinetics in acute oral toxicity study in mice; assay type: in vivo; conditions: male, mouse, plasma, males at 500 mg/kg
attribute.measured: Cmax (µg/mL)
Please reply with the bare figure in µg/mL and do not write the unit itself.

Record Cc1ccc(NC(=O)C2(c3ccc4c(c3)OC(F)(F)O4)CC2)nc1-c1cccc(C(=O)O)c1 [Compound 1] . Reported Cmax: 142

* * *

assay: Toxicokinetics in acute oral toxicity study in mice; type: in vivo; settings: CD-1, mouse, plasma, 2000 mg/kg, Female, read-out: AUC0-24 h
attribute.measured: AUC(0-t) (µg·h/mL)
Please reply with the bare figure in µg·h/mL and do not write the unit itself.

Record Cc1ccc(NC(=O)C2(c3ccc4c(c3)OC(F)(F)O4)CC2)nc1-c1cccc(C(=O)O)c1 [Compound 1] . Reported AUC(0-t): 2900

* * *

Assay: Toxicokinetics in acute oral toxicity study in rats
Format: in vivo
Details: both sexes, rat, plasma, po, could not be calculated at 1000 and 2000 mg/kg, read-out: elimination half-life (t1/2)
Description: Compound 1 was also well absorbed in rats with time to reach maximum plasma concentrations(tmax) ranging from 4.0 to 24.0 hr.
attribute.measured: half-life

Record `Cc1ccc(NC(=O)C2(c3ccc4c(c3)OC(F)(F)O4)CC2)nc1-c1cccc(C(=O)O)c1` . Reported half-life: 9.4 to 10.8 h

* * *

test: Oral pharmacokinetics of Compound 1 in fed or fasted male dogs at 10 mg/kg; type: in vivo, male beagle dogs; conditions: male, beagle, dog, plasma, po, 10 mg/kg, male dogs; Fasted
attribute.measured: AUC(0-inf) (ng·h/mL)
Please reply with the bare figure in ng·h/mL and do not write the unit itself.

Record Cc1ccc(NC(=O)C2(c3ccc4c(c3)OC(F)(F)O4)CC2)nc1-c1cccc(C(=O)O)c1 [Compound 1] . Reported AUC(0-inf): 35800

* * *

assay: Toxicokinetics in 14-day oral toxicity study in dogs; settings: male, beagle, dog, in vivo, 200 mg/kg/day, Study Day 14, Male, read-out: Cmax
attribute.measured: Cmax (µg/mL)
Please reply with the bare figure in µg/mL and do not write the unit itself.

Record `Cc1ccc(NC(=O)C2(c3ccc4c(c3)OC(F)(F)O4)CC2)nc1-c1cccc(C(=O)O)c1` . Reported Cmax: 72

* * *

assay: in vivo; parameters: species or system rats; conditions: rat
attribute.measured: NOAEL at 7 days (mg/kg/day)
Please reply with the bare figure in mg/kg/day and do not write the unit itself.

Record `Cc1ccc(NC(=O)C2(c3ccc4c(c3)OC(F)(F)O4)CC2)nc1-c1cccc(C(=O)O)c1` . Reported NOAEL at 7 days: 300

* * *

experiment: Toxicokinetics in 7-day dose range finding study in dogs; type: in vivo; settings: dog, plasma, oral, 100 mg/kg/day, male
attribute.measured: Cmax

Record `Cc1ccc(NC(=O)C2(c3ccc4c(c3)OC(F)(F)O4)CC2)nc1-c1cccc(C(=O)O)c1` . Reported Cmax: ~110 µM
